Tested On: Lysine-specific demethylase 4C (Homo sapiens)
Method Notes: inhibitors of GASC-1 histone demethylase, primary screen, biochemical, fluorescence, DELFIA europium (AID 2099);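 further: signal counts dimethyl H3K9 product captured on neutravidin plate; 0% = median of DMSO wells and 100% = 0.3 times that DMSO median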
Assay Context: GST-JMJD2C(1-420) H3K9me3 demethylation, at 2.35 µM, stronger effect = higher value
Screen size: about 330,000 compounds; about 230 (0.07%) were called active. The list comes from a sample in which actives are over-represented; it also holds close analogues and randomly drawn compounds.
Reported Endpoint: inhibition (%)

[
  {
    "Smi": "Cc1ccc(S(=O)(=O)N2CCC(C(=O)OCC(=O)N(C)c3ccccc3)CC2)cc1C",
    "Reported Endpoint": "inhibition",
    "Val": 10.2
  },
  {
    "Smi": "Cc1cc(=O)n2nc(N3CCC(C(=O)Nc4c(F)c(F)c(F)c(F)c4F)CC3)sc2n1",
    "Reported Endpoint": "inhibition",
    "Val": 1.58
  },
  {
    "Smi": "COc1ccccc1OCC(=O)Nc1c2c(nn1-c1ccc(F)cc1)CS(=O)(=O)C2",
    "Reported Endpoint": "inhibition",
    "Val": -10.7
  },
  {
    "Smi": "Cc1nn(Cc2ccc(F)cc2)c(C)c1NC(=O)c1noc2c1CCc1ccccc1-2",
    "Reported Endpoint": "inhibition",
    "Val": -8.11
  },
  {
    "Smi": "COc1cccc(CN(C)C(=O)CC23CC4CC(CC(C4)C2)C3)c1OC",
    "Reported Endpoint": "inhibition",
    "Val": 8.93
  }
]
